Biological target: UniProt:P09252
Sequence (P09252 whole entry): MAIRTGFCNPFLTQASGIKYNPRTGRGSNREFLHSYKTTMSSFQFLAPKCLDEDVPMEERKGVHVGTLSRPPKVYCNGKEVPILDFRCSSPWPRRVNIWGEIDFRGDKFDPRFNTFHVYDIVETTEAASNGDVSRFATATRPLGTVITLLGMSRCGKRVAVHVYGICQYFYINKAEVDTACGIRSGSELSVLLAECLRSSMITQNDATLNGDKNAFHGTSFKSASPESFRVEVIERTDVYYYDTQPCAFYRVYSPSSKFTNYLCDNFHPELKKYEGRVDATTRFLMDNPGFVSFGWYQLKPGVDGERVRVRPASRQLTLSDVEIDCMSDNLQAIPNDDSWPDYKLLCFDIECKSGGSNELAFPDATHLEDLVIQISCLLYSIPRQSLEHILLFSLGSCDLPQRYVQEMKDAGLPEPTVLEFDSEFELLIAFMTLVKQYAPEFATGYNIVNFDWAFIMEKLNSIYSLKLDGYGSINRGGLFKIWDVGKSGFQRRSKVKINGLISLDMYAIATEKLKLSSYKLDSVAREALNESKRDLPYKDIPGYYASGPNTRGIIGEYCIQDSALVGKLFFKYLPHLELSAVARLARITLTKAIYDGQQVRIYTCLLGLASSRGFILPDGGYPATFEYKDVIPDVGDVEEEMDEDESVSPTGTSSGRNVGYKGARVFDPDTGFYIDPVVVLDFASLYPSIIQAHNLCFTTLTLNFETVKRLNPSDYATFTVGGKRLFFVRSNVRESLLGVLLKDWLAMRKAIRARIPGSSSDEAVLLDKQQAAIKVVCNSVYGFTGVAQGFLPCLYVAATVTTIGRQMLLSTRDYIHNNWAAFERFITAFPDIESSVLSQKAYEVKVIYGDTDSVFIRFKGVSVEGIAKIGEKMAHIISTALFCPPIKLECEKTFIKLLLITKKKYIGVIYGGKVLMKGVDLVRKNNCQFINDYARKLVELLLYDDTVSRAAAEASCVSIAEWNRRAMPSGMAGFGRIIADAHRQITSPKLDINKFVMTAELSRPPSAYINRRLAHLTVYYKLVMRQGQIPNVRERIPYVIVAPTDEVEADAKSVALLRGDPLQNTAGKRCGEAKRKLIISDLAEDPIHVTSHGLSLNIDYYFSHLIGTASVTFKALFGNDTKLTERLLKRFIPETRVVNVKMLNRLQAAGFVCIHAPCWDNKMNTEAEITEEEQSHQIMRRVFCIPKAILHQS
Assay: biochemical
Details: read-out: polymerase IC50 (μM) VZV
Where a name gives a salt, the structure may show the parent alone.
Recorded IC50 values for a group of compounds are listed next.
I only need the number, in µM, no unit after it.

Known IC50 results, listed for orientation:
>>> df
                                   compound  experimentaltarget  valueobserved
0  CCn1cc(C(=O)NCc2ccc(Cl)cc2)c(=O)c2cc(C#CCCO)sc21 [Example 15]      UniProt:P09252            1.9
1  CCN(CC)CCn1cc(C(=O)NCc2ccc(Cl)cc2)c(=O)c2cc(C#CCO)sc21 [Example 18, hydrochloride]      UniProt:P09252           0.39

Entry under test: O=C(NCc1ccc(Cl)cc1)c1cnc2sc(C#CCO)cc2c1O [Example 5] . Its IC50 was 0.6

Recorded IC50 (compound Cn1cc(C(=O)NCc2ccc(Cl)cc2)c(=O)c2cc(CN3CCOCC3)sc21 [Example 36] ): 0.77

get_value(item= O=C(NCc1ccc(Cl)cc1)c1cnc2sc(CCCO)cc2c1O [Example 8] , readout=IC50) returns 0.55

Query O=C(NCc1ccc(Cl)cc1)c1cn(CCO)c2sc(C#CCO)cc2c1=O [Example 17] yields IC50 of 0.28

* * *

Target: HCMV polymerase (Human cytomegalovirus, UniProt P08546)
Construct: made in house; host or cells: recombinant baculovirus-infected SF-9 cells
Sequence (P08546 whole entry): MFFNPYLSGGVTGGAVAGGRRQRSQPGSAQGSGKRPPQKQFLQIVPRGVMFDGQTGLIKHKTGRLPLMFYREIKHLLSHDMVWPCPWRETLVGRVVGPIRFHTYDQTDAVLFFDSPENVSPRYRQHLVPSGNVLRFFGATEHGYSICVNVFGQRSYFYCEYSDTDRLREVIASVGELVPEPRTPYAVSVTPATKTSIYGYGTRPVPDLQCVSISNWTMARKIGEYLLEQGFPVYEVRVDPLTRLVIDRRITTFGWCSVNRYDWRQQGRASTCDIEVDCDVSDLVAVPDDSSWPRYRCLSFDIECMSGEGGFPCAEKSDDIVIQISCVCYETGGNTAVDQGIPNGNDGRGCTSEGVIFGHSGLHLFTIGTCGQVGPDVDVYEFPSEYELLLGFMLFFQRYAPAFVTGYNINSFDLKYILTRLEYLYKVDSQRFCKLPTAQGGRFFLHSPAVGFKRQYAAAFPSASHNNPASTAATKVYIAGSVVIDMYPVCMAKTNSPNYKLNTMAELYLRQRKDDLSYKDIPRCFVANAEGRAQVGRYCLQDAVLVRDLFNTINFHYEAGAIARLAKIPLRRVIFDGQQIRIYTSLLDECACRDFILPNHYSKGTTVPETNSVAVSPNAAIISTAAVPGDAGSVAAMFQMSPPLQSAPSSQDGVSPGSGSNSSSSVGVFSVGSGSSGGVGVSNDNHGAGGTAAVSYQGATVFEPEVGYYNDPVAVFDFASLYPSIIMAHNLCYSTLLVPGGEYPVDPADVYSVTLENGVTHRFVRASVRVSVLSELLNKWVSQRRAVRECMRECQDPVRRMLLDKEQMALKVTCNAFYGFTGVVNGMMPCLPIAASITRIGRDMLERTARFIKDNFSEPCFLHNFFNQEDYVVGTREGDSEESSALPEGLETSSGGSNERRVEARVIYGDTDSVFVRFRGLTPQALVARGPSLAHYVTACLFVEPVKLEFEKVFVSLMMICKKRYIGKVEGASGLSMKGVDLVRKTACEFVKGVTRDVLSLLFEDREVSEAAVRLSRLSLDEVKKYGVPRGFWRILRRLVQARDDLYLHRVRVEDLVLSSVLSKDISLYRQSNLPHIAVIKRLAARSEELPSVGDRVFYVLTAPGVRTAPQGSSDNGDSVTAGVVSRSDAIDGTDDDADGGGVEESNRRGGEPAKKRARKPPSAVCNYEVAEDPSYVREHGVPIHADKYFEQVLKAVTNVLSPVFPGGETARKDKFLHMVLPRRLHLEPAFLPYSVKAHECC
Assay: biochemical
Conditions: modified SPA assay: compounds diluted in 100% DMSO, 4.5 mM DTT in polymerase buffer; read-out: polymerase IC50 (μM) HCMV
observationType: log10 of IC50 (log10 of the value in µM)
Kindly note that the scale is log10 and the underlying IC50 is in µM.

Consider the reported log10 of IC50 for these compounds:
>>> print(df.to_string())
                                   compound  observationtype  valueobserved
0  O=C(NCc1ccc(Cl)cc1)c1cn(Cc2cccc(F)c2)c2sc(CN3CCOCC3)cc2c1=O [Example 50]    log10 of IC50           0.58
1  COC(=O)C(CC#Cc1cc2c(O)c(C(=O)NCc3ccc(Cl)cc3)cnc2s1)C(=O)OC [Example 10]    log10 of IC50           1.54
2  COC(=O)c1cc2c(O)c(C(=O)NCc3ccc(Cl)cc3)cnc2s1 [Example 33]    log10 of IC50           1.35
3  O=C(NCc1ccc(Cl)cc1)c1cn(CCN2CCCC2)c2sc(CN3CCOCC3)cc2c1=O [Example 53]    log10 of IC50           0.60
4  O=C(NCc1ccc(Cl)cc1)c1cn(Cc2ccccc2)c2sc(CN3CCOCC3)cc2c1=O [Example 49]    log10 of IC50           0.51

Sure, the documented log10 of IC50 for CC(C)n1cc(C(=O)NCc2ccc(Cl)cc2)c(=O)c2cc(C#CCO)sc21 [Example 27] is 0.62

* * *

Structures can show the parent of a compound that is named as a salt.
observationType: melting point

Below, 3 molecules whose answers are already recorded.
>>> df
                                   molecule  observationtype         valueobserved
0  CCn1cc(C(=O)NCc2ccc(Cl)cc2)c(=O)c2cc(CN3CCOCC3)sc21    melting point         194 to 196 °C
1         O=C(NCc1ccc(Cl)cc1)c1cnc2sccc2c1O    melting point         238 to 240 °C
2  Cn1cc(C(=O)NCc2ccc(Cl)cc2)c(=O)c2cc(C(=O)N3CCOCC3)sc21    melting point  244 to 245 °C (dec.)

Input O=C(NCc1ccc(Cl)cc1)c1cn(Cc2cccnc2)c2sc(CN3CCOCC3)cc2c1=O . Output melting point: 214 to 215 °C

// CCn1cc(C(=O)NCc2ccc(Cl)cc2)c(=O)c2cc(I)sc21 : melting point value = 214 to 218 °C

# molecule CCn1cc(C(=O)NCc2ccc(Cl)cc2)c(=O)c2cc(C#CCOC(=O)C(N)C(C)C)sc21 (stereo not shown) (as salt: hydrochloride) ; its melting point = 171 to 172 °C

Lab note: CCn1cc(C(=O)NCc2ccc(Cl)cc2)c(=O)c2cc(C#CCOC(=O)CN3CCOCC3)sc21 gave melting point of 168 to 170 °C

* * *

Listed below: melting point values for each entry.

Before answering, review these 10 worked examples.
                                   molecule         valueobserved
0   O=C(NCc1ccc(Cl)cc1)c1cnc2sc(CCCO)cc2c1O         185 to 186 °C
1  O=C(NCc1ccc(Cl)cc1)c1cn(CCN2CCCC2)c2sc(CN3CCOCC3)cc2c1=O         178 to 180 °C
2  O=C(O)Cn1cc(C(=O)NCc2ccc(Cl)cc2)c(=O)c2cc(C#CCO)sc21  230 to 235 °C (dec.)
3  CCn1cc(C(=O)NCc2ccc(Cl)cc2)c(=O)c2cc(Br)sc21         196 to 197 °C
4  O=C(NCc1ccc(Cl)cc1)c1cnc2sc(CN3CCOCC3)cc2c1O         193 to 195 °C
5  CC(C)n1cc(C(=O)NCc2ccc(Cl)cc2)c(=O)c2cc(C#CCO)sc21         190 to 196 °C
6      O=C(NCc1ccc(Cl)cc1)c1cnc2sc(I)cc2c1O  231 to 232 °C (dec.)
7  Cn1cc(C(=O)NCc2ccc(Cl)cc2)c(=O)c2cc(C#CCO)sc21         206 to 208 °C
8  CCn1cc(C(=O)NCc2ccc(Cl)cc2)c(=O)c2cc(CCCCO)sc21         136 to 139 °C
9  O=C(NCc1ccc(Cl)cc1)c1cn(CCO)c2sc(CCCO)cc2c1=O         174 to 178 °C

Record summary for O=C(NCc1ccc(Cl)cc1)c1cnc2sc(C#CCCO)cc2c1O : reported melting point = 242 to 246 °C

Sample CN(Cc1cc2c(=O)c(C(=O)NCc3ccc(Cl)cc3)cn(C)c2s1)CC(O)c1ccc(O)cc1 (centres unmarked) ; melting point observed: 187 °C

Item: O=C(NCc1ccc(Cl)cc1)c1cnc2sc(CO)cc2c1O | melting point: 205 to 210 °C

* * *

Molecular target: HCMV polymerase (Human cytomegalovirus)
Construct: made in house; host or cells: recombinant baculovirus-infected SF-9 cells
Test: biochemical
Conditions: modified SPA assay: compounds diluted in 100% DMSO, 4.5 mM DTT in polymerase buffer; read-out: polymerase IC50 (μM) HCMV
observationType: log10 of IC50 (log10 of the value in µM)
On a log10 scale: recorded IC50, unit µM.

// below: answered compounds
>>> print(df.to_string())
                                   compound  valueobserved
0  O=C(NCc1ccc(Cl)cc1)c1cn(CCO)c2sc(C#CCO)cc2c1=O          -0.04
1  Cn1cc(C(=O)NCc2ccc(Cl)cc2)c(=O)c2cc(C(=O)N3CCOCC3)sc21           1.28
2  O=C(NCc1ccc(Cl)cc1)c1cnc2sc(C#CCCO)cc2c1O           0.90
3  CCn1cc(C(=O)NCc2ccc(Cl)cc2)c(=O)c2ccsc21           1.04
4  O=C(NCc1ccc(Cl)cc1)c1cn(Cc2cccnc2)c2sc(CN3CCOCC3)cc2c1=O           0.51

Next, consider the following compound.
Reported log10 of IC50 of COCC#Cc1cc2c(O)c(C(=O)NCc3ccc(Cl)cc3)cnc2s1 : 0.76

* * *

Overview of recorded melting point for various molecules
Counter-ions that a name gives are not always drawn.

                                   molecule         valueobserved
0  COC(=O)c1cc2c(O)c(C(=O)NCc3ccc(Cl)cc3)cnc2s1         238 to 240 °C
1  CCN(CC)CCn1cc(C(=O)NCc2ccc(Cl)cc2)c(=O)c2cc(C#CCO)sc21 (as salt: hydrochloride)  212 to 214 °C (dec.)
2  Cn1cc(C(=O)NCc2ccc(Cl)cc2)c(=O)c2cc(CN3CCSCC3)sc21  215 to 218 °C (dec.)

Note: attention shifts to another entry.
// sample CCn1cc(C(=O)NCc2ccc(Cl)cc2)c(=O)c2cc(C#CCO)sc21 , its melting point was 217 to 219 °C

* * *

Molecular target: HCMV polymerase (Human cytomegalovirus, UniProt P08546)
Construct: made in house; host or cells: recombinant baculovirus-infected SF-9 cells
Assay: biochemical
Details: modified SPA assay: compounds diluted in 100% DMSO, 4.5 mM DTT in polymerase buffer; read-out: polymerase IC50 (μM) HCMV
observationType: log10 of IC50 (log10 of the value in µM)
Would you kindly interpret these values as log10 of IC50 expressed in µM?

Example compounds with recorded log10 of IC50:
>>> df
                                   compound  valueobserved
0  CCn1cc(C(=O)NCc2ccc(Cl)cc2)c(=O)c2cc(C#CCO)sc21           0.26
1  Cn1cc(C(=O)NCc2ccc(Cl)cc2)c(=O)c2cc(I)sc21           0.46
2  CCn1cc(C(=O)NCc2ccc(Cl)cc2)c(=O)c2cc(C#CCOC(=O)CCC(=O)O)sc21           0.81

Response field log10 of IC50 (HCMV polymerase (Human cytomegalovirus, UniProt P08546)) for item O=C(O)Cn1cc(C(=O)NCc2ccc(Cl)cc2)c(=O)c2cc(C#CCO)sc21 : -0.07

# log10 of IC50 measured on HCMV polymerase (Human cytomegalovirus, UniProt P08546) for item Cn1cc(C(=O)NCc2ccc(Cl)cc2)c(=O)c2cc(CCCO)sc21 = -0.40

Measured on HCMV polymerase (Human cytomegalovirus, UniProt P08546), CC(C)n1cc(C(=O)NCc2ccc(Cl)cc2)c(=O)c2cc(CCCO)sc21 has a documented log10 of IC50 of 0.38
